target: CDK12/Cyclin K (Homo sapiens); assay: Inhibition of CDK12/Cyclin K (unknown origin) preincubated for 10 mins followed by substrate and ATP addition measured after 200 mins by ADP-Glo luminescence assay
Sequence (O75909 whole entry): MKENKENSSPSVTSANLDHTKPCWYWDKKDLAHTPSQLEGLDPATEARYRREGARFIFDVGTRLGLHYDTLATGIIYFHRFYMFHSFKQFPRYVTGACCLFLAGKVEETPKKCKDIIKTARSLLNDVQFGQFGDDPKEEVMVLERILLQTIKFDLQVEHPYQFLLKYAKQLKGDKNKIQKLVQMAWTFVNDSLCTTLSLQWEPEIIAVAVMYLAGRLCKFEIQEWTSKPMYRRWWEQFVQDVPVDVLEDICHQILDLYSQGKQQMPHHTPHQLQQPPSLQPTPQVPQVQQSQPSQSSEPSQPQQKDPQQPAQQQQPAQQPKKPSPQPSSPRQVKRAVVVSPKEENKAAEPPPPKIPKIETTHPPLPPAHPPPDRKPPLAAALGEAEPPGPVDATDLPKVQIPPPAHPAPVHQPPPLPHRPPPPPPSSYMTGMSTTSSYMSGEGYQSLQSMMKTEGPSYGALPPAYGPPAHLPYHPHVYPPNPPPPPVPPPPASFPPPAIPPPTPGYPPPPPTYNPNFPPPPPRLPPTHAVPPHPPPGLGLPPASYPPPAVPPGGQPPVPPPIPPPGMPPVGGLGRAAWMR
Sequence (Q9NYV4 whole entry): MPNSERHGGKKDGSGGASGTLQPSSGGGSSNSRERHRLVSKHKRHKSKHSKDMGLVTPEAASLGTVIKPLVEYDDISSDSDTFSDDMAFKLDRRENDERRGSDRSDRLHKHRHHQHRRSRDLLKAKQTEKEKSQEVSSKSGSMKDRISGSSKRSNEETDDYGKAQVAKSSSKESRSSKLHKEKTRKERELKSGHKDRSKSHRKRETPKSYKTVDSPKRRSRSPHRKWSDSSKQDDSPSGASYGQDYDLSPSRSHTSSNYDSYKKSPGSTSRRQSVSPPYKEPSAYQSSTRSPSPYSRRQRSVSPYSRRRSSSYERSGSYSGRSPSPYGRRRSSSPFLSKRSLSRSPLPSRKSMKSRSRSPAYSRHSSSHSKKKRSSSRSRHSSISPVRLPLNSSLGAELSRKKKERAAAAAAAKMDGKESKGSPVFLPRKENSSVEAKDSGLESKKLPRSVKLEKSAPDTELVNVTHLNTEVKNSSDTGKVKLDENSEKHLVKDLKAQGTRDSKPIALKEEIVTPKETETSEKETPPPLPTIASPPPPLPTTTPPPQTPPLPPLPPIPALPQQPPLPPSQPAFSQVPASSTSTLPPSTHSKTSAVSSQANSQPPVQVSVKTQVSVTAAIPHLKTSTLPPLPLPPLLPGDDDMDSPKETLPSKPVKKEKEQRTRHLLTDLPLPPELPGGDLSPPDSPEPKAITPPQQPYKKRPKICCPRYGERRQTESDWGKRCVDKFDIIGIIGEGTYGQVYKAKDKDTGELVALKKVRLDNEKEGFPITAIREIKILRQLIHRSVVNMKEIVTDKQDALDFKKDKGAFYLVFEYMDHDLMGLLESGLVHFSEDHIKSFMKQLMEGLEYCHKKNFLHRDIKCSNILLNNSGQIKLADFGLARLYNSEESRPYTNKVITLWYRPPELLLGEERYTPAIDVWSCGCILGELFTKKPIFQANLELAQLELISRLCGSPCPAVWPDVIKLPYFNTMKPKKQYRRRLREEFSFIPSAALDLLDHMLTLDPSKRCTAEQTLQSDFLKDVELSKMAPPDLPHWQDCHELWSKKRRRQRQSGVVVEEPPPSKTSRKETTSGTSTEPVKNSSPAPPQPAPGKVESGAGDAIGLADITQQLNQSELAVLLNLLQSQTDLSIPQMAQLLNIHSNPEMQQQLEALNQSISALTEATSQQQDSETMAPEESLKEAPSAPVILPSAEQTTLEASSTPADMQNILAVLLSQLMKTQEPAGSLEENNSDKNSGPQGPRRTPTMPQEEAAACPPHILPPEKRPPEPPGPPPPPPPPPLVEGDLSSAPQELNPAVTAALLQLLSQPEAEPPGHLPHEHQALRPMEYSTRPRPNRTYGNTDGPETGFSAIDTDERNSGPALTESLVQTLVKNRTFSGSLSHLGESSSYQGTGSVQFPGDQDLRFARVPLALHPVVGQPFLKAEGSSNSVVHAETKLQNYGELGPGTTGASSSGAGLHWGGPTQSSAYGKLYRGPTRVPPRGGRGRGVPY
RESULT_TYPE: IC50 (nM)

>>> quantitative_readout("Cn1cc(C2=C(c3cn(CCCSC(=N)N)c4ccccc34)C(=O)NC2=O)c2ccccc21 [BISINDOLYLMALEIMIDE IX]")
143

a: CN(C)C/C=C/C(=O)Nc1ccc(C(=O)N2CCC[C@@H](Nc3ncc(Cl)c(-c4c[nH]c5ccccc45)n3)C2)cc1
b: Cn1ncc(-c2nc(N[C@H]3CC[C@H](N)CC3)ncc2F)c1CC1CC1
Query block: Please state the entry with greater IC50 among a and b . Let me know the label of the one you choose.
Result block: a
(a: 152 nM, b: 53 nM)

====

target: CDK12/Cyclin K (Homo sapiens); assay: Inhibition of CDK12/Cyclin K (unknown origin) preincubated for 10 mins followed by substrate and ATP addition measured after 200 mins by ADP-Glo luminescence assay
pIC50: −log10 of the molar value.
RESULT_TYPE: pIC50

>>> quantitative_readout("C=CC(=O)Nc1cccc(Nc2cc(N3CCCC[C@H]3CCO)nc3c(CC)cnn23)c1")
7.13
>>> quantitative_readout("COc1cc(F)ccc1-c1cc(Nc2cc(C[S@@](C)(=N)=O)ccn2)ncc1F")
6.37
>>> quantitative_readout("CN1CCN(Cc2ccc(NC(=O)c3n[nH]cc3Nc3ncnc4[nH]ccc34)cc2)CC1")
6.74

a: O=C1CC[C@@H](N2C(=O)c3cccc(OCCCCCOc4ccc(CC(=O)Nc5cc(C6CCC6)[nH]n5)cc4)c3C2=O)C(=O)N1
b: NCCCNc1ccc(Nc2nccc(Nc3cc(C4CC4)[nH]n3)n2)cc1
Query block: Between the two listed entries a and b , which has its pIC50 at the higher number? Could you answer with the label of the item you picked?
Result block: b
(b: 6.58, a: 6.13)

====

target: Cyclin-dependent kinase 13/Cyclin-K (Homo sapiens, UniProt Q14004); assay: Inhibition of CDK13/Cyclin K (unknown origin) preincubated for 10 mins followed by substrate and ATP addition measured after 200 mins by ADP-Glo luminescence assay
Sequence (Q14004 whole entry): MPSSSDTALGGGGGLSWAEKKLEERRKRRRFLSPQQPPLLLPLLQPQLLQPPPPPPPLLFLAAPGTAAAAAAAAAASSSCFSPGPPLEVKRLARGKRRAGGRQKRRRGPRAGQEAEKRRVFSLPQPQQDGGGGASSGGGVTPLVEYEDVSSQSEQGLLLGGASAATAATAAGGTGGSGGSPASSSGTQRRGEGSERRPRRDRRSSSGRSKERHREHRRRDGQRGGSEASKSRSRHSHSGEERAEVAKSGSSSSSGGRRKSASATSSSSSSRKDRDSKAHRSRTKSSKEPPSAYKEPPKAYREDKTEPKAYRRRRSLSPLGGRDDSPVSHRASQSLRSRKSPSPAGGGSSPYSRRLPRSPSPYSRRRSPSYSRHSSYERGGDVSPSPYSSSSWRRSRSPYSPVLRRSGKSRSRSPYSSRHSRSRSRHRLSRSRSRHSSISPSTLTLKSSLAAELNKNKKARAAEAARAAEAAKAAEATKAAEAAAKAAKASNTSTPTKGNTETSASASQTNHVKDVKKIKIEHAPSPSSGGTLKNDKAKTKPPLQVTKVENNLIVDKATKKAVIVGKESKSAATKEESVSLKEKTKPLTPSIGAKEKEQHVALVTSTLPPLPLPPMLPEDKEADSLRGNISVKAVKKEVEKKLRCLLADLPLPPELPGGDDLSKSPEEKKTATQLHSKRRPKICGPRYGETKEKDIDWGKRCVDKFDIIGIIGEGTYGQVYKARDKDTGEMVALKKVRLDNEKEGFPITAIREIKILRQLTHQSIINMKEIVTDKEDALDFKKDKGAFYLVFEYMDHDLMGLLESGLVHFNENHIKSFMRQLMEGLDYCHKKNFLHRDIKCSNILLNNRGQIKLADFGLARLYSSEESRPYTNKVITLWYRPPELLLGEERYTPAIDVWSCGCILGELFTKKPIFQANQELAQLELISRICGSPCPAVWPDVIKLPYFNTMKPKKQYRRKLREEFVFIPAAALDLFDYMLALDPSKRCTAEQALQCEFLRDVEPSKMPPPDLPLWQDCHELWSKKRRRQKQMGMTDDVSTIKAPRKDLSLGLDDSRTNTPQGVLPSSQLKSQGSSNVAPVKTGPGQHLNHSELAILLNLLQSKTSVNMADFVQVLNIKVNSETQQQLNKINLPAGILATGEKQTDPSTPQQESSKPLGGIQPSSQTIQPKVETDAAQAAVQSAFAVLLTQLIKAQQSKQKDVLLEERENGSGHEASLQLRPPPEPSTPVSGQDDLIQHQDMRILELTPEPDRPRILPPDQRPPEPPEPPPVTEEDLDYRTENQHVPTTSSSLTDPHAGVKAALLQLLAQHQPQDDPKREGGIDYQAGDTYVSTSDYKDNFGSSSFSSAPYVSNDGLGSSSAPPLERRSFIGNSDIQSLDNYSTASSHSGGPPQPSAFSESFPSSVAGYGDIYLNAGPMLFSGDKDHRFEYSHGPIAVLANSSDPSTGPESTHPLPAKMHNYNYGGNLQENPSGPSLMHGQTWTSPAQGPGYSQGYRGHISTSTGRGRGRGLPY
Sequence (O75909 whole entry, further chain): as the sequence (O75909 whole entry) above
RESULT_TYPE: IC50 (µM)

Reference set, count: 4
>>> quantitative_readout("Cn1cc(C2=C(c3cn(CCCSC(=N)N)c4ccccc34)C(=O)NC2=O)c2ccccc21 [BISINDOLYLMALEIMIDE IX]")
0.206
>>> quantitative_readout("Cn1ncc(-c2nc(N[C@H]3CC[C@H](N)CC3)ncc2F)c1CC1CC1")
0.0215
>>> quantitative_readout("CN(C)C/C=C/C(=O)Nc1ccc(C(=O)N2CCC[C@@H](Nc3ncc(Cl)c(-c4c[nH]c5ccccc45)n3)C2)cc1")
0.04
>>> quantitative_readout("CN1CCN(Cc2ccc(NC(=O)c3n[nH]cc3Nc3ncnc4[nH]ccc34)cc2)CC1")
0.187

P: C=CC(=O)Nc1cccc(Nc2cc(N3CCCC[C@H]3CCO)nc3c(CC)cnn23)c1
Q: NCCCNc1ccc(Nc2nccc(Nc3cc(C4CC4)[nH]n3)n2)cc1
Query block: # return whichever of P and Q has the smaller IC50 Write down the label of the entry you select.
Result block: P
